DETAILS: in n-butyl acetate, 293.15 K
REPORTED_METRIC: solubility (mole fraction)
Please respond with just the number, no unit label.

# input What value of solubility (mole fraction) has been reported for the following molecule? CN(CCOc1ccc(CC2SC(=O)NC2=O)cc1)c1ccccn1 (stereo unspecified)
# output 0.00117

---

DETAILS: in methanol, 333.15 K
REPORTED_METRIC: solubility (mole fraction)
Please respond with just the number, no unit label.

# input What value of solubility (mole fraction) has been reported for the following molecule? CN(CCOc1ccc(CC2SC(=O)NC2=O)cc1)c1ccccn1 (stereo unspecified)
# output 0.00235

---

DETAILS: in n-propanol, 323.15 K
REPORTED_METRIC: solubility (mole fraction)
Please respond with just the number, no unit label.

# input What value of solubility (mole fraction) has been reported for the following compound? CN(CCOc1ccc(CC2SC(=O)NC2=O)cc1)c1ccccn1 (stereo unspecified)
# output 0.00133

---

DETAILS: in acetonitrile, 303.15 K
REPORTED_METRIC: solubility (mole fraction)
Please respond with just the number, no unit label.

# input What value of solubility (mole fraction) has been reported for the following molecule? CN(CCOc1ccc(CC2SC(=O)NC2=O)cc1)c1ccccn1 (stereo unspecified)
# output 0.000744

---

DETAILS: in isopropanol, 283.15 K
REPORTED_METRIC: solubility (mole fraction)
Please respond with just the number, no unit label.

# input What value of solubility (mole fraction) has been reported for the following compound? CN(CCOc1ccc(CC2SC(=O)NC2=O)cc1)c1ccccn1 (stereo unspecified)
# output 0.00013

---

DETAILS: in ethyl acetate, 303.15 K
REPORTED_METRIC: solubility (mole fraction)
Please respond with just the number, no unit label.

# input What value of solubility (mole fraction) has been reported for the following molecule? CN(CCOc1ccc(CC2SC(=O)NC2=O)cc1)c1ccccn1 (stereo unspecified)
# output 0.003

---

DETAILS: in n-butanol, 283.15 K
REPORTED_METRIC: solubility (mole fraction)
Please respond with just the number, no unit label.

# input What value of solubility (mole fraction) has been reported for the following molecule? CN(CCOc1ccc(CC2SC(=O)NC2=O)cc1)c1ccccn1 (stereo unspecified)
# output 0.000341

---

DETAILS: in acetonitrile, 333.15 K
REPORTED_METRIC: solubility (mole fraction)
Please respond with just the number, no unit label.

# input What value of solubility (mole fraction) has been reported for the following compound? CN(CCOc1ccc(CC2SC(=O)NC2=O)cc1)c1ccccn1 (stereo unspecified)
# output 0.00352

---

DETAILS: in ethanol, 323.15 K
REPORTED_METRIC: solubility (mole fraction)
Please respond with just the number, no unit label.

# input What value of solubility (mole fraction) has been reported for the following compound? CN(CCOc1ccc(CC2SC(=O)NC2=O)cc1)c1ccccn1 (stereo unspecified)
# output 0.00124

---

DETAILS: in n-butanol, 293.15 K
REPORTED_METRIC: solubility (mole fraction)
Please respond with just the number, no unit label.

# input What value of solubility (mole fraction) has been reported for the following molecule? CN(CCOc1ccc(CC2SC(=O)NC2=O)cc1)c1ccccn1 (stereo unspecified)
# output 0.000371

---

DETAILS: in ethyl acetate, 323.15 K
REPORTED_METRIC: solubility (mole fraction)
Please respond with just the number, no unit label.

# input What value of solubility (mole fraction) has been reported for the following compound? CN(CCOc1ccc(CC2SC(=O)NC2=O)cc1)c1ccccn1 (stereo unspecified)
# output 0.00649

Hey, just so you know, these numbers are from BigSolDB 2.1.
